Target: T1, human TSH receptor (full length), coated on tubes (human, UniProt P16473 22-764)
T1 construct: TSHR coated tubes as described in WO2004/050708A2; The receptor is full length and held on plastic tubes through a mouse MAb to the TSHR; also called thyroid stimulating hormone receptor
Assay: inhibition of 125I-K1-70 Fab (competitor) binding to TSHR coated tubes; 0.003 µg/mL in assay buffer
READOUT: Inhibition of binding (%)
Report only the number, with the unit % understood.

Reference set, count: 3
[
  {
    "BINDER": "K1-70 Fab (Fab, V domains shown) VH: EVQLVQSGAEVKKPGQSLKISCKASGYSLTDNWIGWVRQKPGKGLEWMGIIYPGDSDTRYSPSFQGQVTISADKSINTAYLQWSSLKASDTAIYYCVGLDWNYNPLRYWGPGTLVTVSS VL: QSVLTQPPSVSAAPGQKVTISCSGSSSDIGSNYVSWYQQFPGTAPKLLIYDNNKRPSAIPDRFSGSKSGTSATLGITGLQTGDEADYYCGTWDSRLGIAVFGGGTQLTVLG",
    "READOUT UNIT": "%",
    "Inhibition of binding (%)": 40
  },
  {
    "BINDER": "K1-70 IgG (antibody, V domains shown, Human IgG1 lambda purified from hetero-hybridoma supernatant; also called human monoclonal autoantibody to the TSHR with TSH antagonist activity) VH: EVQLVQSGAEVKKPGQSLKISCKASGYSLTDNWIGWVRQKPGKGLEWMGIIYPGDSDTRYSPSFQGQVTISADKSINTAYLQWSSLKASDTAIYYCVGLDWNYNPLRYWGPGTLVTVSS VL: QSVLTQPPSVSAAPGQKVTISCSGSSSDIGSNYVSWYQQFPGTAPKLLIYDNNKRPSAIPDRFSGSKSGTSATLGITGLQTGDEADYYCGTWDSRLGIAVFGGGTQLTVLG",
    "READOUT UNIT": "%",
    "Inhibition of binding (%)": 27.7
  },
  {
    "BINDER": "K1-18 Fab (Fab, V domains shown) VH: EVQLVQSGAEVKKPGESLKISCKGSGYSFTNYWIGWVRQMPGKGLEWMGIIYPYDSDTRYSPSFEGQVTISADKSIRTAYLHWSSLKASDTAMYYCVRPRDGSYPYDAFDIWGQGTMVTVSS VL: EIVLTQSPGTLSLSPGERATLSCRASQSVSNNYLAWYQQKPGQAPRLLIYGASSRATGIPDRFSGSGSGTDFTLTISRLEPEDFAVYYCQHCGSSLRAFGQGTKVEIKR",
    "READOUT UNIT": "%",
    "Inhibition of binding (%)": 5
  }
]

// query What value of Inhibition of binding (%) has been recorded for this entry: K1-18 IgG (antibody, V domains shown, Human IgG1 kappa purified from hetero-hybridoma supernatant; also called human monoclonal autoantibody to the TSHR with TSH agonist activity) VH: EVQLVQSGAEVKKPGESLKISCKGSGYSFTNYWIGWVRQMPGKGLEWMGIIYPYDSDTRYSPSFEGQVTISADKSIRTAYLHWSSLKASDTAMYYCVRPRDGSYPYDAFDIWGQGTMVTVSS VL: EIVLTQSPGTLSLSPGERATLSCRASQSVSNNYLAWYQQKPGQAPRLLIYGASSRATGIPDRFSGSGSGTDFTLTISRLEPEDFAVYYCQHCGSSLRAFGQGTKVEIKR
// result 11.4
